- assay: photoluminescence quantum yield (fraction); solvent given as SMILES
- details: in CC#N
Threshold rule: photoluminescence quantum yield greater than or equal to 0.4 is Fulfilled; below that, Not fulfilled.

[[record]]
compound = "CCCCN1c2ccccc2Sc2cc(/C=C/c3nc4nc5ccccc5nc4s3)ccc21"
class_label = "Not fulfilled"

[[record]]
compound = "COc1cccc(C2=c3c(c4ccc(C(C)(C)C)cc4c4cc(C(C)(C)C)ccc34)=[N+]3C2=C(c2ccccc2)c2c(-c4cccc(OC)c4)c4c5ccc(C(C)(C)C)cc5c5cc(C(C)(C)C)ccc5c4n2[B-]3(F)F)c1"
class_label = "Fulfilled"

[[record]]
compound = "O=C1NC(=O)C(c2c[nH]c3ccccc23)=C1c1c[nH]c2ccccc12"
class_label = "Not fulfilled"

[[record]]
compound = "C#CCn1c2ccccc2c2cc(/C=C/C3=[N+]4C(=C(c5ccc(I)cc5)c5c(C)c(Cl)c(/C=C/c6ccc7c(c6)c6ccccc6n7CC#C)n5[B-]4(F)F)C(C)=C3Cl)ccc21"
class_label = "Fulfilled"


Has COC(=O)C1=NNC(C(=O)OC)=C2c3ccccc3C(=O)c3ccccc3C12 (stereo not drawn) a recorded photoluminescence quantum yield greater than or equal to 0.4?
Not fulfilled

Has N#Cc1nn(-c2ccccc2)nc1N1CCCC1 a recorded photoluminescence quantum yield greater than or equal to 0.4?
Fulfilled

Has Cc1cc(O)c(C(=O)/C=C/c2ccc(N(C)C)cc2)c(=O)o1 a recorded photoluminescence quantum yield greater than or equal to 0.4?
Not fulfilled

----------
- assay: photoluminescence quantum yield (fraction); solvent given as SMILES
- details: in CS(C)=O
# Lookup of reported photoluminescence quantum yield keyed by entry
// response body must contain only the number

Before answering, review these 2 worked examples.
[[record]]
smi = "COc1cccc2cc(-c3ccc([N+](=O)[O-])cc3)c(=O)oc12"
property_label = "photoluminescence quantum yield"
reading = 0.0015

[[record]]
smi = "CCC1=C(C)C2=Cc3ccccc3B(O)N2C1=O"
property_label = "photoluminescence quantum yield"
reading = 0.19


# context switch: different molecule, same photoluminescence quantum yield
Entry CCC1=C(C)C(=O)n2c1cc1c(C)c(CC)c(C)n1c2=O — recorded photoluminescence quantum yield = 0.98

----------
- assay: photoluminescence quantum yield (fraction); solvent given as SMILES
- details: in O
# Lookup of reported photoluminescence quantum yield keyed by entry
// response body must contain only the number

Before answering, review these 4 worked examples.
[[record]]
smi = "CC[n+]1nc2ccc(N(C)C)cc2c2cc(C)ccc21"
reading = 0.003

[[record]]
smi = "O=[N+]([O-])c1ccc(/C=C/c2cn(S(=O)(=O)c3ccccc3)c3ccccc23)cc1"
reading = 0.003

[[record]]
smi = "CN1/C(=C/C=C/C2=[N+](CCCCCC(=O)O)c3ccc(S(=O)(=O)[O-])cc3C2(C)C)C(C)(C)c2cc(S(=O)(=O)[O-])ccc21"
reading = 0.04

[[record]]
smi = "COCCOCCOCCOc1cc(C=O)c(OCCOCCOCCOC)cc1C=O"
reading = 0.54


# context switch: different compound, same photoluminescence quantum yield
Entry O=C1/C(=C2\Sc3ccc(S(=O)(=O)O)cc3C2=O)Sc2ccc(S(=O)(=O)O)cc21 — recorded photoluminescence quantum yield = 0.005

----------
- assay: photoluminescence quantum yield (fraction); solvent given as SMILES
- details: in Cc1ccccc1
Threshold rule: photoluminescence quantum yield greater than or equal to 0.7 is t; below that, f.

Answered cases to consult:
[[record]]
smi = "Cc1cc(C)c(C2=C3C=C(/C=C/C(=O)OC(C)(C)C)C=[N+]3[B-](F)(F)n3c2ccc3N2CCOCC2)c(C)c1"
class_label = "f"

[[record]]
smi = "CCN(CC)/C(C)=N\\c1ccc2c3c(cccc13)C(=O)c1ccccc1-2"
class_label = "f"


Has O=c1oc2ccccc2cc1-c1nc2ccccc2o1 a recorded photoluminescence quantum yield greater than or equal to 0.7?
t

Has COc1ccc2c(c1)c1c(c3cc(OC)ccc32)=[N+]2C(=C(c3c(C)cc(C)cc3C)c3cc4c5cc(OC)ccc5c5ccc(OC)cc5c4n3[B-]2(F)F)C=1 a recorded photoluminescence quantum yield greater than or equal to 0.7?
f

Has COc1ccc(N(c2ccc(C=C(c3ccccc3)c3ccccc3)cc2)c2ccc(C=C(c3ccccc3)c3ccccc3)cc2)cc1 a recorded photoluminescence quantum yield greater than or equal to 0.7?
f
